Taken from patent US11015061B2.

Assay Remarks: Tts (total solar transmittance) of heat ray shielding film
Format: physicochemical
Assay Context: heat ray shielding film (5 g compound, 50 g acryl resin LP-45M, 2.5 μm on PET) on 3 mm glass plate; JIS R3106
Experimental Readout: Tts

1. [O]=[V+2].c1ccc(OCCCCc2ccc(CCCCOc3ccccc3)c3c2-c2nc-3nc3[n-]c(nc4nc(nc5[n-]c(n2)c2c(CCCCOc6ccccc6)ccc(CCCCOc6ccccc6)c52)-c2c(CCCCOc5ccccc5)ccc(CCCCOc5ccccc5)c2-4)c2c(CCCCOc4ccccc4)ccc(CCCCOc4ccccc4)c32)cc1
85.5%
2. COc1cccc(OCCCCc2ccc(CCCCOc3cccc(OC)c3)c3c2-c2nc-3nc3[n-]c(nc4nc(nc5[n-]c(n2)c2c(CCCCOc6cccc(OC)c6)ccc(CCCCOc6cccc(OC)c6)c52)-c2c(CCCCOc5cccc(OC)c5)ccc(CCCCOc5cccc(OC)c5)c2-4)c2c(CCCCOc4cccc(OC)c4)ccc(CCCCOc4cccc(OC)c4)c32)c1.[Cu+2]
85.9%
3. COCc1ccc(COC)c2c1-c1nc-2nc2[n-]c(nc3nc(nc4[n-]c(n1)c1c(COC)ccc(COC)c41)-c1c(COC)ccc(COC)c1-3)c1c(COC)ccc(COC)c21.[O]=[V+2] [Comparative Example Compound (a), reference compound]
89.5%

* * *

Measured Solubility to cyclopentanone (wt %) accompanies every entry in the list below.
Assay Remarks: Solubility in organic solvent (cyclopentanone)
Type: physicochemical
Assay Context: about 10 wt % dispersion, room temperature, 0.2 μm filter; no residue = 10 wt % or more
Experimental Readout: Solubility to cyclopentanone (wt %)

1) CC(C)(C)c1ccc(OCCCCc2ccc(CCCCOc3ccc(C(C)(C)C)cc3)c3c2-c2nc-3nc3[n-]c(nc4nc(nc5[n-]c(n2)c2c(CCCCOc6ccc(C(C)(C)C)cc6)ccc(CCCCOc6ccc(C(C)(C)C)cc6)c52)-c2c(CCCCOc5ccc(C(C)(C)C)cc5)ccc(CCCCOc5ccc(C(C)(C)C)cc5)c2-4)c2c(CCCCOc4ccc(C(C)(C)C)cc4)ccc(CCCCOc4ccc(C(C)(C)C)cc4)c32)cc1.[O]=[V+2]
≥10% wt %
2) COc1cccc(OC)c1OCCCCc1ccc(CCCCOc2c(OC)cccc2OC)c2c1-c1nc-2nc2[n-]c(nc3nc(nc4[n-]c(n1)c1c(CCCCOc5c(OC)cccc5OC)ccc(CCCCOc5c(OC)cccc5OC)c41)-c1c(CCCCOc4c(OC)cccc4OC)ccc(CCCCOc4c(OC)cccc4OC)c1-3)c1c(CCCCOc3c(OC)cccc3OC)ccc(CCCCOc3c(OC)cccc3OC)c21.[O]=[V+2]
≥10% wt %
3) CCOCCCCc1ccc(CCCCOCC)c2c1-c1nc-2nc2[n-]c(nc3nc(nc4[n-]c(n1)c1c(CCCCOCC)ccc(CCCCOCC)c41)-c1c(CCCCOCC)ccc(CCCCOCC)c1-3)c1c(CCCCOCC)ccc(CCCCOCC)c21.[O]=[V+2]
≥10% wt %
4) COCCCCc1ccc(CCCCOC)c2c1-c1nc-2nc2[n-]c(nc3nc(nc4[n-]c(n1)c1c(CCCCOC)ccc(CCCCOC)c41)-c1c(CCCCOC)ccc(CCCCOC)c1-3)c1c(CCCCOC)ccc(CCCCOC)c21.[O]=[V+2]
≥10% wt %
5) COc1cccc(OCCCCc2ccc(CCCCOc3cccc(OC)c3)c3c2-c2nc-3nc3[n-]c(nc4nc(nc5[n-]c(n2)c2c(CCCCOc6cccc(OC)c6)ccc(CCCCOc6cccc(OC)c6)c52)-c2c(CCCCOc5cccc(OC)c5)ccc(CCCCOc5cccc(OC)c5)c2-4)c2c(CCCCOc4cccc(OC)c4)ccc(CCCCOc4cccc(OC)c4)c32)c1.[Cu+2]
≥10% wt %
6) Fc1ccccc1OCCCCc1ccc(CCCCOc2ccccc2F)c2c1-c1nc-2nc2[n-]c(nc3nc(nc4[n-]c(n1)c1c(CCCCOc5ccccc5F)ccc(CCCCOc5ccccc5F)c41)-c1c(CCCCOc4ccccc4F)ccc(CCCCOc4ccccc4F)c1-3)c1c(CCCCOc3ccccc3F)ccc(CCCCOc3ccccc3F)c21.[O]=[V+2]
≥10% wt %
7) COCc1ccc(COC)c2c1-c1nc-2nc2[n-]c(nc3nc(nc4[n-]c(n1)c1c(COC)ccc(COC)c41)-c1c(COC)ccc(COC)c1-3)c1c(COC)ccc(COC)c21.[O]=[V+2] [Comparative Example Compound (a), reference compound]
≤1% wt %

* * *

Assay Remarks: Visible light transmittance of chloroform solution
Type: physicochemical
Assay Context: spectrum converted to transmittance 10% at near-infrared maximum absorption wavelength
Experimental Readout: Transmittance (%) 610 nm

1) COc1cccc(OCCCCc2ccc(CCCCOc3cccc(OC)c3)c3c2-c2nc-3nc3[n-]c(nc4nc(nc5[n-]c(n2)c2c(CCCCOc6cccc(OC)c6)ccc(CCCCOc6cccc(OC)c6)c52)-c2c(CCCCOc5cccc(OC)c5)ccc(CCCCOc5cccc(OC)c5)c2-4)c2c(CCCCOc4cccc(OC)c4)ccc(CCCCOc4cccc(OC)c4)c32)c1.[O]=[V+2] [Specific Example (1)-39]
88.1
2) Fc1ccccc1OCCCCc1ccc(CCCCOc2ccccc2F)c2c1-c1nc-2nc2[n-]c(nc3nc(nc4[n-]c(n1)c1c(CCCCOc5ccccc5F)ccc(CCCCOc5ccccc5F)c41)-c1c(CCCCOc4ccccc4F)ccc(CCCCOc4ccccc4F)c1-3)c1c(CCCCOc3ccccc3F)ccc(CCCCOc3ccccc3F)c21.[O]=[V+2] [Specific Example (1)-43]
88.0
3) [O]=[V+2].c1ccc(OCCOCCCCc2ccc(CCCCOCCOc3ccccc3)c3c2-c2nc-3nc3[n-]c(nc4nc(nc5[n-]c(n2)c2c(CCCCOCCOc6ccccc6)ccc(CCCCOCCOc6ccccc6)c52)-c2c(CCCCOCCOc5ccccc5)ccc(CCCCOCCOc5ccccc5)c2-4)c2c(CCCCOCCOc4ccccc4)ccc(CCCCOCCOc4ccccc4)c32)cc1 [Specific Example (1)-38]
88.6

* * *

Measured Visible light transmittance accompanies every entry in the list below.
Assay Remarks: Visible light transmittance of laminated glass sample
Type: physicochemical
Assay Context: 380 to 780 nm, JIS R3212
Experimental Readout: Visible light transmittance (%)

1) COCCCCc1ccc(CCCCOC)c2c1-c1nc-2nc2[n-]c(nc3nc(nc4[n-]c(n1)c1c(CCCCOC)ccc(CCCCOC)c41)-c1c(CCCCOC)ccc(CCCCOC)c1-3)c1c(CCCCOC)ccc(CCCCOC)c21.[Cu+2] [Specific Example (1)-31]
77.7
2) CCOCCCCc1ccc(CCCCOCC)c2c1-c1nc-2nc2[n-]c(nc3nc(nc4[n-]c(n1)c1c(CCCCOCC)ccc(CCCCOCC)c41)-c1c(CCCCOCC)ccc(CCCCOCC)c1-3)c1c(CCCCOCC)ccc(CCCCOCC)c21.[O]=[V+2] [Specific Example (1)-33]
77.5
3) CC(C)(C)c1ccc(OCCCCc2ccc(CCCCOc3ccc(C(C)(C)C)cc3)c3c2-c2nc-3nc3[n-]c(nc4nc(nc5[n-]c(n2)c2c(CCCCOc6ccc(C(C)(C)C)cc6)ccc(CCCCOc6ccc(C(C)(C)C)cc6)c52)-c2c(CCCCOc5ccc(C(C)(C)C)cc5)ccc(CCCCOc5ccc(C(C)(C)C)cc5)c2-4)c2c(CCCCOc4ccc(C(C)(C)C)cc4)ccc(CCCCOc4ccc(C(C)(C)C)cc4)c32)cc1.[O]=[V+2] [Specific Example (1)-42]
77.7

* * *

Assay Remarks: Tts of laminated glass sample
Assay type: physicochemical
Assay Context: 0.76 mm PVB interlayer with 0.013 g compound per 100 g resin, JIS R3106
Measured Tts accompanies every entry in the list below.
Experimental Readout: Tts (%)

1. COc1cccc(OCCCCc2ccc(CCCCOc3cccc(OC)c3)c3c2-c2nc-3nc3[n-]c(nc4nc(nc5[n-]c(n2)c2c(CCCCOc6cccc(OC)c6)ccc(CCCCOc6cccc(OC)c6)c52)-c2c(CCCCOc5cccc(OC)c5)ccc(CCCCOc5cccc(OC)c5)c2-4)c2c(CCCCOc4cccc(OC)c4)ccc(CCCCOc4cccc(OC)c4)c32)c1.[Cu+2]
52
2. COc1cccc(OC)c1OCCCCc1ccc(CCCCOc2c(OC)cccc2OC)c2c1-c1nc-2nc2[n-]c(nc3nc(nc4[n-]c(n1)c1c(CCCCOc5c(OC)cccc5OC)ccc(CCCCOc5c(OC)cccc5OC)c41)-c1c(CCCCOc4c(OC)cccc4OC)ccc(CCCCOc4c(OC)cccc4OC)c1-3)c1c(CCCCOc3c(OC)cccc3OC)ccc(CCCCOc3c(OC)cccc3OC)c21.[O]=[V+2]
52.9

* * *

Assay Remarks: Light fastness test of heat ray shielding film
Assay type: physicochemical
Assay Context: xenon light 200 hours at 550 W/h, absorbance integrated 400 to 900 nm
Experimental Readout: ΔE (%) Light fastness

1) COCCCCc1ccc(CCCCOC)c2c1-c1nc-2nc2[n-]c(nc3nc(nc4[n-]c(n1)c1c(CCCCOC)ccc(CCCCOC)c41)-c1c(CCCCOC)ccc(CCCCOC)c1-3)c1c(CCCCOC)ccc(CCCCOC)c21.[Cu+2]
3
2) COc1cccc(OCCCCc2ccc(CCCCOc3cccc(OC)c3)c3c2-c2nc-3nc3[n-]c(nc4nc(nc5[n-]c(n2)c2c(CCCCOc6cccc(OC)c6)ccc(CCCCOc6cccc(OC)c6)c52)-c2c(CCCCOc5cccc(OC)c5)ccc(CCCCOc5cccc(OC)c5)c2-4)c2c(CCCCOc4cccc(OC)c4)ccc(CCCCOc4cccc(OC)c4)c32)c1.[Cu+2]
2
3) COCCCCc1ccc(CCCCOC)c2c1-c1nc-2nc2[n-]c(nc3nc(nc4[n-]c(n1)c1c(CCCCOC)ccc(CCCCOC)c41)-c1c(CCCCOC)ccc(CCCCOC)c1-3)c1c(CCCCOC)ccc(CCCCOC)c21.[O]=[V+2]
5
4) COc1cccc(OC)c1OCCCCc1ccc(CCCCOc2c(OC)cccc2OC)c2c1-c1nc-2nc2[n-]c(nc3nc(nc4[n-]c(n1)c1c(CCCCOc5c(OC)cccc5OC)ccc(CCCCOc5c(OC)cccc5OC)c41)-c1c(CCCCOc4c(OC)cccc4OC)ccc(CCCCOc4c(OC)cccc4OC)c1-3)c1c(CCCCOc3c(OC)cccc3OC)ccc(CCCCOc3c(OC)cccc3OC)c21.[Cu+2]
2
5) [O]=[V+2].c1ccc(OCCOCCCCc2ccc(CCCCOCCOc3ccccc3)c3c2-c2nc-3nc3[n-]c(nc4nc(nc5[n-]c(n2)c2c(CCCCOCCOc6ccccc6)ccc(CCCCOCCOc6ccccc6)c52)-c2c(CCCCOCCOc5ccccc5)ccc(CCCCOCCOc5ccccc5)c2-4)c2c(CCCCOCCOc4ccccc4)ccc(CCCCOCCOc4ccccc4)c32)cc1
5
6) CC(C)(C)c1ccc(OCCCCc2ccc(CCCCOc3ccc(C(C)(C)C)cc3)c3c2-c2nc-3nc3[n-]c(nc4nc(nc5[n-]c(n2)c2c(CCCCOc6ccc(C(C)(C)C)cc6)ccc(CCCCOc6ccc(C(C)(C)C)cc6)c52)-c2c(CCCCOc5ccc(C(C)(C)C)cc5)ccc(CCCCOc5ccc(C(C)(C)C)cc5)c2-4)c2c(CCCCOc4ccc(C(C)(C)C)cc4)ccc(CCCCOc4ccc(C(C)(C)C)cc4)c32)cc1.[O]=[V+2]
4
7) CCOCCCCc1ccc(CCCCOCC)c2c1-c1nc-2nc2[n-]c(nc3nc(nc4[n-]c(n1)c1c(CCCCOCC)ccc(CCCCOCC)c41)-c1c(CCCCOCC)ccc(CCCCOCC)c1-3)c1c(CCCCOCC)ccc(CCCCOCC)c21.[O]=[V+2]
3
